Recorded inhibition by entry
Target: 5'-AMP-activated protein kinase catalytic subunit alpha-2 (Homo sapiens) (UniProt P54646)
Sequence (P54646 whole entry, looked up): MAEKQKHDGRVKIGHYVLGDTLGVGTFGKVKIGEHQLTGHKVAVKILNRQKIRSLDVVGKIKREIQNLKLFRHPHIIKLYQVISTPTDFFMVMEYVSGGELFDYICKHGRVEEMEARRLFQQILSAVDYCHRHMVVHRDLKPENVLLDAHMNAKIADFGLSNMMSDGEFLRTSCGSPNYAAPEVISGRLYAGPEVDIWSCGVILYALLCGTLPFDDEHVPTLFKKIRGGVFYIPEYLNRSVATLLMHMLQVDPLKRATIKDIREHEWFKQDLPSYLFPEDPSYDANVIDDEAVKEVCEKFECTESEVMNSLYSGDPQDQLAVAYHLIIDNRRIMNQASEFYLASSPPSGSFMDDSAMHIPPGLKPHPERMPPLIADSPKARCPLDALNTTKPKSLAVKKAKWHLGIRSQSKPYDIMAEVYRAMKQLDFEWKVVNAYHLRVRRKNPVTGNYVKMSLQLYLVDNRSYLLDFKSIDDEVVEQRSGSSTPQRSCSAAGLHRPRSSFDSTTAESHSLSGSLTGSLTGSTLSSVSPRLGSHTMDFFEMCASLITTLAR
Conditions: at 1 µM
Description: GSK_PKIS: AMPKA2 (A2B1G1) mean inhibition at 1 uM [Nanosyn]
value kind: inhibition (%)

- compound: "CCn1c(-c2nonc2N)nc2cnc(Oc3cccc(NC(=O)c4ccc(OCCN5CCOCC5)cc4)c3)cc21"
  result value: 3.43
- compound: "CCn1c(-c2nonc2N)nc2ccncc21"
  result value: 4.28
- compound: "N#Cc1c(NC(=O)c2cccc3ccccc23)sc2c1CCCC2"
  result value: 5.58
- compound: "c1cnn2ncc(-c3ccnc(Nc4ccc5c(c4)OCCO5)n3)c2c1"
  result value: 12.6
- compound: "CC(=O)Nc1cccc(C#Cc2cncnc2Nc2ccc(OCc3cccc(F)c3)c(Cl)c2)n1"
  result value: -0.66
- compound: "O=C(Nc1n[nH]c2nc(-c3ccco3)c(Br)cc12)C1CC1"
  result value: 5.5
- compound: "COc1ccc(-c2nn3ncccc3c2-c2ccnc(Nc3ccc(Cl)c(C(F)(F)F)c3)n2)cc1"
  result value: -8.45
- compound: "Nc1ncnc2occ(-c3ccc(NC(=O)Nc4cccc(C(F)(F)F)c4)cc3)c12"
  result value: 5.34
- compound: "COc1ccccc1Nc1ncc(-c2ccccc2)o1"
  result value: 4.09
- compound: "CCCN1CCC=C(c2ccc(Nc3nc(Nc4ccccc4C(N)=O)c4cc[nH]c4n3)c(C)c2)C1"
  result value: 14.5
- compound: "CS(=O)(=O)CCNCc1nc(-c2ccc3ncnc(Nc4ccc(F)c(Cl)c4)c3c2)cs1"
  result value: 1.32
- compound: "CC1=C(C(=O)Nc2ccc3[nH]ncc3c2)C(c2ccc3ccccc3c2)CC(=O)N1 (stereo not drawn)"
  result value: 11.5
- compound: "COc1cc2ncn(-c3cc(OCc4ccccc4Cl)c(C(N)=O)s3)c2cc1OC"
  result value: 3.59
- compound: "Fc1cccc(COc2ccc(Nc3ncnc4sc(-c5cccs5)cc34)cc2Cl)c1"
  result value: 0.62
- compound: "O=C1NC(=O)C(N2CCc3ccccc32)=C1c1ccc(Cl)cc1"
  result value: 5.78
- compound: "COc1cccc(-n2ncc3c(N/N=C/c4cccc(F)c4)ncnc32)c1"
  result value: 6.48
- compound: "O=C1NC(=O)C(c2ccccc2Cl)=C1Nc1cccc(O)c1"
  result value: 4.22
- compound: "COc1cc2ncn(-c3cc(OCc4ccccc4C(F)(F)F)c(C(N)=O)s3)c2cc1OC"
  result value: 6.24

Attribution: ChEMBL document CHEMBL1961873
